A short record of IC50 observed with EGFR (human) follows.
PARAMETER: IC50 (µM)

Sample answers from the record:
smiles_code=CCOc1cc2ncnc(Nc3cccc(F)c3)c2cc1OCC measurement_target="EGFR (human)" units_symbol=µM val=0.099
smiles_code=COc1cc2ncnc(Nc3ccccc3F)c2cc1OC measurement_target="EGFR (human)" units_symbol=µM val=0.179
smiles_code=CCOc1cc2ncnc(Nc3ccccc3F)c2cc1OCC measurement_target="EGFR (human)" units_symbol=µM val=0.141
smiles_code=COc1cc2ncnc(Nc3cccc(I)c3)c2cc1OC measurement_target="EGFR (human)" units_symbol=µM val=0.585

(P) COc1cc2ncnc(Nc3ccc(F)cc3)c2cc1OC
(Q) COc1cc2ncnc(Nc3cc(F)cc(C(F)(F)F)c3)c2cc1OC
input: Out of P and Q , name the one with the higher IC50. Provide the label of your selected option as the answer.
output: Q
(Q: 1.63 µM, P: 0.612 µM)
